The reported numbers originate from the supplement of paper PMC11780869.

tested on: Bacillus subtilis; experiment: cleaved RNA product abundance (RNA/gDNA barcode ratio) relative to median wild-type variant (ratio to wild type); higher = more accumulation of the downstream cleavage product; conditions: experiment (reporter, strain, medium): exp 4a: truncated aprE reporter, strain BJT201 with 2% xylose (RNase J1 expressed); cleavage site: cggR-gapA (positions -7 to +36 mutated)
Label scheme for cleaved RNA product abundance: lower than 0.1 is class 0, 0.1 and above is class 1.

[in] Reported cleaved RNA product abundance reaches at least 0.1 for "ACAGACGAAGGAGCCGCAAAGAAGTTATTAAGGGATGAATAATCCCTCTATATAAATACCTCTCACTTATTTAAA" ?
[out] class 1

[in] Reported cleaved RNA product abundance reaches at least 0.1 for "ACAGACGAAGGAGCCGCAAAGAAGTTAATAAGGGATGAATAATCGCTCAATATAAATATCTCTCACTTATTTAAA" ?
[out] class 0

[in] Reported cleaved RNA product abundance reaches at least 0.1 for "ACAGACGAAGGAGCCGCAAAGAAGTTATTAAGGAATGATTAATCCCTCAATATAAATATCTCTCACTTATTTAAA" ?
[out] class 1

[in] Reported cleaved RNA product abundance reaches at least 0.1 for "ACAGACGAAGGAGCCGCAAAGAAGTTATTAAGGGATGAATAATCACTAAATATAAATATCTCTCACTTATTTAAA" ?
[out] class 1

[in] Reported cleaved RNA product abundance reaches at least 0.1 for "ACAGACGAAGGAGCCGCAAAGAAGTTATTAAGGGATGAATAATACCTCAATATAAATATCTCTCACTTATTAAAG" ?
[out] class 1

###

test system: Bacillus subtilis; experiment: cleaved RNA product abundance (RNA/gDNA barcode ratio) relative to median wild-type variant (ratio to wild type); higher = more accumulation of the downstream cleavage product; conditions: experiment (reporter, strain, medium): exp 4a: truncated aprE reporter, strain BJT201 with 2% xylose (RNase J1 expressed); cleavage site: cggR-gapA (positions -7 to +36 mutated)
Please respond with reported cleaved RNA product abundance for every item in the list.
Number only, no unit.

[in] Provide measured cleaved RNA product abundance value, entry: "ACAGACGAAGGAGCCGCAAAGAAGTTATTAAGGGATGAATAATCCCTTAATATAAATATTTCTCACTTATTTAAA"
[out] 0.494

[in] Provide measured cleaved RNA product abundance value, entry: "ACAGACGAAGGAGCCGCAAAGAAGTTATTAAAGGATGAATAATCCCTCCTTATAAATATCTCTCACTTATTTAAA"
[out] 0.0791

[in] Provide measured cleaved RNA product abundance value, entry: "ACAGACGAAGGAGCCGCAAACAAGTTATTAAGGGATGAATAATCCCTCAATATAAATATCTCTCACTTATTTAAA"
[out] 0.738

[in] Provide measured cleaved RNA product abundance value, entry: "ACAGACGAAGGAGCCGCAAAGAAGTGATTAAGGGTTGAATAATCCCTCAATATAAATATCTCTCACTTATTTAAA"
[out] 0.263

[in] Provide measured cleaved RNA product abundance value, entry: "ACAGACGAAGGAGCCGCAAAGAAGTTATTTAGGGATTAATAATCCCTCAATATAAATATCTCTCACTTATTTAAA"
[out] 1.08

[in] Provide measured cleaved RNA product abundance value, entry: "ACAGACGAAGGAGCCGCAAAAAAGTTATTAAGGAATGAATAATCCCTCAATATAAATATCTCTCACTTATTTAAA"
[out] 0.156

[in] Provide measured cleaved RNA product abundance value, entry: "ACAGACGAAGGAGCCGCAAAGAAGTTATTAAGGGATCAATAATCCCTCAATATAAATAACTCTCACTTATTTAAA"
[out] 0.687

[in] Provide measured cleaved RNA product abundance value, entry: "ACAGACGAAGGAGCCGCAGAGAAGTTATTAAAGGATGAATAATCCCTCAATATAAATATCTCTCACTTATTTAAA"
[out] 0.227

[in] Provide measured cleaved RNA product abundance value, entry: "ACAGACGAAGGAGCCGCAAAGAAGTTATTAAGGGATGAATAATACCTCAATATAGATATCTCTCACTTATTTAAA"
[out] 0.147

[in] Provide measured cleaved RNA product abundance value, entry: "ACAGACGAAGGAGCCGCAAAAAAGGTATTAAGGGATGAATAATCCCTCAATATAAATATCTCTCACTTATTTAAA"
[out] 0.879

[in] Provide measured cleaved RNA product abundance value, entry: "ACAGACGAAGGAGCCGCAAAGAAGTTATTAATGGATGAATAATCCCTCATTATAAATATCTCTCACTTATTTAAA"
[out] 0.201

[in] Provide measured cleaved RNA product abundance value, entry: "ACAGACGAAGGAGCCGCAAAGAAGTTATTAAGGGATGAATAATCCCTTAATATACATATCTCTCACTTATTTAAA"
[out] 0.232

[in] Provide measured cleaved RNA product abundance value, entry: "ACAGACGAAGGAGCCGCAAAGAAGTTATTAAGGGATGAATAATGTCTCAATATAAATATCTCTCACTTATTTAAA"
[out] 0.0823

[in] Provide measured cleaved RNA product abundance value, entry: "ACAGACGAAGGAGCCGCAAAGAAGTTATTAAGGTATGCATAATCCCTCAATATAAATATCTCTCACTTATTTAAA"
[out] 0.126

[in] Provide measured cleaved RNA product abundance value, entry: "ACAGACGAAGGAGCCGCAAAGAAGTTATAAAGGGATTAATAATCCCTCAATATAAATATCTCTCACTTATTTAAA"
[out] 0.362

[in] Provide measured cleaved RNA product abundance value, entry: "ACAGACGAAGGAGCCGCAAAGAAGTTATTATGGGATGAATAATCCGTCAATATAAATATCTCTCACTTATTTAAA"
[out] 0.279

[in] Provide measured cleaved RNA product abundance value, entry: "ACAGACGAAGGAGCCGCAAAGAAGTACTTAAGGGATGAATAATCCCTCAATATAAATATCTCTCACTTATTTAAA"
[out] 0.243

[in] Provide measured cleaved RNA product abundance value, entry: "ACAGACGAAGGAGCCGCAAAGAAGTTATGAAGGGATGAATAATCCCTAAATATAAATATCTCTCACTTATTTAAA"
[out] 0.711

[in] Provide measured cleaved RNA product abundance value, entry: "ACAGACGAAGGAGCCGCAAAGAAGTTACAAAGGGATGAATAATCCCTCAATATAAATATCTCTCACTTATTTAAA"
[out] 0.257

[in] Provide measured cleaved RNA product abundance value, entry: "ACAGACGAAGGAGCCGCAAAGAAGTTATTAAGGGATGCGTAATCCCTCAATATAAATATCTCTCACTTATTTAAA"
[out] 0.629

[in] Provide measured cleaved RNA product abundance value, entry: "ACAGACGAAGGAGCCGCAAAGAACTTATTAAGGGATGAATAATCCCTCAGTATAAATATCTCTCACTTATTTAAA"
[out] 0.309
